Biological target: MAO-A (amine oxidase [flavin-containing] A) (Homo sapiens, UniProt P21397)
Sequence (P21397 whole entry): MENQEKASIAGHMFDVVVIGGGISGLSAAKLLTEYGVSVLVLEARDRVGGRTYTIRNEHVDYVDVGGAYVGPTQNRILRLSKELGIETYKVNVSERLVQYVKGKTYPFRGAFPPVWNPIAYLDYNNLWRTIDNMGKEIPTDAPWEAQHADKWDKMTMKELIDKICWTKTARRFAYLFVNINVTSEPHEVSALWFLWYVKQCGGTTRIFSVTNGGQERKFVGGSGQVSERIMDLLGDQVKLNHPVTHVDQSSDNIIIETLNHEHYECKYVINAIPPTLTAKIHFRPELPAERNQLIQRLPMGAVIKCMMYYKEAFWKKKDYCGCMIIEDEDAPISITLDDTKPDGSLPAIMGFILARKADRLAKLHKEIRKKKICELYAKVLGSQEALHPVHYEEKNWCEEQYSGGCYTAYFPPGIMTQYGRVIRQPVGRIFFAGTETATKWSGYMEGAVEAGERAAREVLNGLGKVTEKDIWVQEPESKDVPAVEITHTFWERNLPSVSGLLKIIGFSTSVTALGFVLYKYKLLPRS
Assay: Agonist activity in the Eurofins Cerep SafetyScreen44 (BI) against MAO-A_ANTAG by Scintillation counting (Cerep_443)
Parameters: scale not given: the % may be the effect or the level left
Settings: rat; compound concentration 10 uM; target entry is the homologue from another species; read-out: % Ctrl
value type: activity at 10 µM

| compound | assayed target | value type | result |
| --- | --- | --- | --- |
| COc1cc(C)c(S(=O)(=O)N(C)CCC(=O)N[C@H]2CC[C@@H](N3CCC4CN(C)CC4C3)CC2)c(C)c1 (stereo partly specified) | MAO-A (amine oxidase [flavin-containing] A) (Homo sapiens, UniProt P21397) | activity at 10 µM | 106% (not active) |

* * *

Biological target: UniProtKB Q12809
Experiment: Activity against K+/HERG in the Eurofins SafetyScreen44 (BI) by Radioactive Assay
Details: compound concentration 10 uM, read-out: % Ctrl

| molecular string | activity at 10 µM |
| --- | --- |
| COc1cc(C)c(S(=O)(=O)N(C)CCOCC(=O)N(C)[C@H]2CCC[C@@H](N3CCN(C)CC3)C2)c(C)c1 | 70% (not active) |

* * *

Target: L-type calcium channel (dihydropyridine site), Cav1.2 alpha-1C (Rattus norvegicus, UniProt P22002)
Sequence (P22002 whole entry): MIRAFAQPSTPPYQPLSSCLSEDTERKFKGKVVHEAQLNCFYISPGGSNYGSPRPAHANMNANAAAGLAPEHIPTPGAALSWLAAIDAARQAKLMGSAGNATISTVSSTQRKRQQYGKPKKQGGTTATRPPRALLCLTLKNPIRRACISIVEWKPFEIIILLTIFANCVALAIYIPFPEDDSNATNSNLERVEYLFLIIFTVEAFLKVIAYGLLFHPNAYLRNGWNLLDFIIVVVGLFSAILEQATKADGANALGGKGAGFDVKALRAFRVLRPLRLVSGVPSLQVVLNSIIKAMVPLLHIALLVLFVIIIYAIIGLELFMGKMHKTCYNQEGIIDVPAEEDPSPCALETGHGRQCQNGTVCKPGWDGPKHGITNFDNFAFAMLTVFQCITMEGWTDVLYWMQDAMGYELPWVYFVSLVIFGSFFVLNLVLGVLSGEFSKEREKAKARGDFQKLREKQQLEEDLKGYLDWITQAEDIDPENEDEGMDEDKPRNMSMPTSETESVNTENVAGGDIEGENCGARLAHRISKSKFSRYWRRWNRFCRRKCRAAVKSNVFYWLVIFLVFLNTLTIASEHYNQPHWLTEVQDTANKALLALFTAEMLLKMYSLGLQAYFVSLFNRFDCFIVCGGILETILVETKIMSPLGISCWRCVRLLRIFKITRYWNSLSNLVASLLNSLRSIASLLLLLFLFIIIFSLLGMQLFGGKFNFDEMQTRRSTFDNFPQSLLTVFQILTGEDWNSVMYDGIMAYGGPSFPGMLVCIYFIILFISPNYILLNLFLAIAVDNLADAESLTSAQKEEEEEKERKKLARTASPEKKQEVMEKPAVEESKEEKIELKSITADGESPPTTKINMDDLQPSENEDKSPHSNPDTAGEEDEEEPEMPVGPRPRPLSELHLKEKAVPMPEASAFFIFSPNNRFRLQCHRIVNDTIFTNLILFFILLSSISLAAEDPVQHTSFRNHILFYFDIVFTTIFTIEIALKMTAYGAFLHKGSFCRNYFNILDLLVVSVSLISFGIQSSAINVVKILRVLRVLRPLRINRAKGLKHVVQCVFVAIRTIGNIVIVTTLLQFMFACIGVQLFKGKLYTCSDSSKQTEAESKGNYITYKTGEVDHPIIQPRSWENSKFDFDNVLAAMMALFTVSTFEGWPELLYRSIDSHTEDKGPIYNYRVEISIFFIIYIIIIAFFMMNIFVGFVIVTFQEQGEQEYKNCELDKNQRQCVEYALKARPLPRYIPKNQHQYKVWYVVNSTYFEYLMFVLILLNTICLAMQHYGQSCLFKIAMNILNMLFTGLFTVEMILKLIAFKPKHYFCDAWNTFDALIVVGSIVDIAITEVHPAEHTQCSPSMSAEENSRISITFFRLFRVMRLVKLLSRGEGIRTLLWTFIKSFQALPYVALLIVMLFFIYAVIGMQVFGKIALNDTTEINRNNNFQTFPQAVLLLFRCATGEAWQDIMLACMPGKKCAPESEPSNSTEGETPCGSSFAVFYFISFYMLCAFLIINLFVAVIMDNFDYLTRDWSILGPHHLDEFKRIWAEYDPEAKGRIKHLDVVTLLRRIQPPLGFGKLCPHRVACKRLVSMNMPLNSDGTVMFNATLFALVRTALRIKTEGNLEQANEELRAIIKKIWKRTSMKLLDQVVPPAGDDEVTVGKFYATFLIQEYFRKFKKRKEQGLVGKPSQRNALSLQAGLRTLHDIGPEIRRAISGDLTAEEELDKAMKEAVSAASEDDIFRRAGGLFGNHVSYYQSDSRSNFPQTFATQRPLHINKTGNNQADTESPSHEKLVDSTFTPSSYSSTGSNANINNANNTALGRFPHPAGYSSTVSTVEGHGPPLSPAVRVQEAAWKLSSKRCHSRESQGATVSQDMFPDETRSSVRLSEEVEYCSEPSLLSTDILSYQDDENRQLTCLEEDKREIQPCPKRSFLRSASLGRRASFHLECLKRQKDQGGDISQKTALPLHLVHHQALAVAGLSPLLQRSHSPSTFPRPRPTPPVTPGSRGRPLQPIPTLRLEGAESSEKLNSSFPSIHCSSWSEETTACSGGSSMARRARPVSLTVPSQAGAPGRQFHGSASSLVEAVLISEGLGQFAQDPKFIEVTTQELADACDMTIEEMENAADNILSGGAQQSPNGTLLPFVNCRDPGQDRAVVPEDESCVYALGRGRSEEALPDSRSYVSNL
Assay: Inhibitor of CA+/DHPSI/R in the Eurofins Cerep SafetyScreen44 (BI) by Radioactive Assay (Cerep_161)
Assay type: protein assay
Set-up: scale not given: the % may be the effect or the level left
Details: rat brain, probe [3H](+)PN200-110, compound concentration 10 uM, read-out: % Ctrl

| compound | activity at 10 µM |
| --- | --- |
| COc1cc(C)c(S(=O)(=O)N(C)CCC(=O)N[C@H]2CC[C@@H](N3CCC4CN(C)CC4C3)CC2)c(C)c1 (stereo partly specified) | 120% (not active) |

* * *

Molecular target: hERG (KCNH2) (Homo sapiens)
Sequence (Q12809 whole entry): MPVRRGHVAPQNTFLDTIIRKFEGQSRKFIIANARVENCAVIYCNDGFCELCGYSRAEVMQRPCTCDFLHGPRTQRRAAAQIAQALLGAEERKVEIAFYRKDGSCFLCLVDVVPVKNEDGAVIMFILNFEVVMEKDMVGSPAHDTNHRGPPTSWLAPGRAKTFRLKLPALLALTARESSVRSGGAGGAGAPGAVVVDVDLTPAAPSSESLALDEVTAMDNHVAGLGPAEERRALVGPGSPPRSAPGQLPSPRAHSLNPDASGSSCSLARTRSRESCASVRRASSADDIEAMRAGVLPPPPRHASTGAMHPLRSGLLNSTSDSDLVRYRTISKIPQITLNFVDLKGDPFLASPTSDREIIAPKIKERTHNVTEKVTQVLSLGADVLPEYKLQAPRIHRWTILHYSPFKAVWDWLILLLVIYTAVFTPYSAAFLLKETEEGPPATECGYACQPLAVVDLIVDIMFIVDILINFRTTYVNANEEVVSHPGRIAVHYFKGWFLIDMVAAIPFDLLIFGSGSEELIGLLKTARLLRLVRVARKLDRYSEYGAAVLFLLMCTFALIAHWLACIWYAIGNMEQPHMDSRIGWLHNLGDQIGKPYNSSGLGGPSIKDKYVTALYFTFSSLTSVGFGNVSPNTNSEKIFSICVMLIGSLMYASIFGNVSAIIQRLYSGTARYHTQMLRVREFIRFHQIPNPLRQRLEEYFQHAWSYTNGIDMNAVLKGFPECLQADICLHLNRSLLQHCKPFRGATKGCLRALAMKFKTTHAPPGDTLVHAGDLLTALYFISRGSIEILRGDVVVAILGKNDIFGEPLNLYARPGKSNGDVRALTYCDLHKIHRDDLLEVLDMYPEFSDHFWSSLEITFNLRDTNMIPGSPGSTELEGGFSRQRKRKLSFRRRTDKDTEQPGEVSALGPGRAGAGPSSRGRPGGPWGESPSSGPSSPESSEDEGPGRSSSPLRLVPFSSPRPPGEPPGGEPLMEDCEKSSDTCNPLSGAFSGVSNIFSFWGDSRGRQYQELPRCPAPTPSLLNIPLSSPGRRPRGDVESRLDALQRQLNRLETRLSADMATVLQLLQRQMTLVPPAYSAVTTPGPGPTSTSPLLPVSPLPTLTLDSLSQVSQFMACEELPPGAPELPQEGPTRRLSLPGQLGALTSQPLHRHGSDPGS
Assay: Inhibitor of HERG_DOFETILIDE in the Eurofins Cerep SafetyScreen44 (BI) by Scintillation counting (Cerep_4094)
Parameters: scale not given: the % may be the effect or the level left
Conditions: probe [3H]dofetilide, compound concentration 10 uM, read-out: % Ctrl

| compound | activity at 10 µM |
| --- | --- |
| COc1cc(C)c(S(=O)(=O)N(C)CCC(=O)N[C@H]2CC[C@@H](N3CCC4CN(C)CC4C3)CC2)c(C)c1 (stereo partly specified) | 63% (not active) |

Every entry's value here was drawn from ChEMBL document CHEMBL5723587.
